# System: prostate cancer cell line (LNCap)
# procedure text: Cell growth inhibition assay (Celltiter Glo)
# Type: cell-based
# applied conditions: Homo sapiens, LNCap cells, 120 hours incubation
outcome measure: IC50 (µM)
Please respond with the number in µM and leave the unit unwritten.

For `CS(=O)(=O)N(O)c1ccc(CCNc2cc(Cl)nc3ccccc23)cc1` the molecule record lists IC50 as 0.81

For `NS(=O)(=O)c1ccc(CCNc2cc(Cl)nc3ccccc23)cc1` the molecule record lists IC50 as 5.1

For `O=[N+]([O-])c1ccc(CCNc2ccnc3ccccc23)cc1` the molecule record lists IC50 as 4.7

---

# test system: STAT3 (Homo sapiens)
# Construct: endogenous in cells; host or cells: LNCaP (human prostate cancer) stably carrying pSTAT3-TA-luc reporter plasmid
# Sequence (P40763 whole entry): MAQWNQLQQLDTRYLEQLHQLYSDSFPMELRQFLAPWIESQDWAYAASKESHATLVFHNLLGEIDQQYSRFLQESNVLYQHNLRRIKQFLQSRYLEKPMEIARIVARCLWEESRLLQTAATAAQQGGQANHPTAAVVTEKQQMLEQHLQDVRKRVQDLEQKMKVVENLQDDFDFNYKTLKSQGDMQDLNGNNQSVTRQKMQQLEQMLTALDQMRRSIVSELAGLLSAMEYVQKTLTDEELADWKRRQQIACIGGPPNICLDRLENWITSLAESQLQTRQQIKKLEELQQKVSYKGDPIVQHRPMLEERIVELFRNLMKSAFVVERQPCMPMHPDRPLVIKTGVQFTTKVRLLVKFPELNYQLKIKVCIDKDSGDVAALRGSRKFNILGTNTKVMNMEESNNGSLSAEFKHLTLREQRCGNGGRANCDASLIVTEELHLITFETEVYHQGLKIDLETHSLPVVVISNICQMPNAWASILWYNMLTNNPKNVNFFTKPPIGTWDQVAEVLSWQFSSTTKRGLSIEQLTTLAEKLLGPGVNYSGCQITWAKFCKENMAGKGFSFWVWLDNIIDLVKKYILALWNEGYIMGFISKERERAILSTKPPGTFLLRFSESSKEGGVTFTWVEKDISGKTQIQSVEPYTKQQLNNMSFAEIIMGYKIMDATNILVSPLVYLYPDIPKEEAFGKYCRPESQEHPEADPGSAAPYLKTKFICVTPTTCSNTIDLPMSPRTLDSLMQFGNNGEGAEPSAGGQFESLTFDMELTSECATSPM
# procedure text: STAT3 activation inhibition assay (reporter gene assay, LNcaP stable cell line, IL-6 stimulated)
# Type: cell-based
# applied conditions: LNcaP stable cell line [plasmid STAT3-TA-luc], IL-6 10 ng/mL, 48 hours, luciferase activity; read-out: IC50 (μM) pSTAT3
// classify: if (IC50 < 3 µM) Yes else No

Reference set (4 entries):
compound: CS(=O)(=O)Nc1ccc(CCNc2ncc(Cl)c3ccccc23)cc1 [Example 74]
class name: No

compound: CS(=O)(=O)Nc1ccc(CCNc2cc(Cl)nc3c(F)cccc23)cc1 [Example 45]
class name: No

compound: O=C(c1ccccc1)c1ccc2nc(Cl)cc(NCCc3ccc([N+](=O)[O-])cc3)c2c1 [Example 34]
class name: No

compound: CS(=O)(=O)Nc1ccc(CCNc2nccc3nccnc23)cc1 [Example 71]
class name: No

# check: IC50 < 3 µM for Cc1cc(NCCc2ccc([N+](=O)[O-])cc2)c2ccccc2n1 [Example 5]
No

# check: IC50 < 3 µM for NC(=O)c1ccc2nc(Cl)cc(NCCc3ccc([N+](=O)[O-])cc3)c2c1 [Example 41]
No

# check: IC50 < 3 µM for CS(=O)(=O)Nc1ccc(CCNc2nc(Cl)nc3ccccc23)cc1 [Example 23]
Yes

# check: IC50 < 3 µM for NNC(=O)c1ccc2nc(Cl)cc(NCCc3ccc([N+](=O)[O-])cc3)c2c1 [Example 44]
No

# check: IC50 < 3 µM for O=[N+]([O-])c1ccc(CCNc2cc(Cl)nc3ccc(N4CCOCC4)cc23)cc1 [Example 28, 2,2,2-trifluoroacetate]
No

# check: IC50 < 3 µM for COc1cccc2c(NCCc3ccc([N+](=O)[O-])cc3)cc(Cl)nc12 [Example 10]
No

# check: IC50 < 3 µM for CS(=O)(=O)Nc1ccc(CCNc2ccnc3c(F)cccc23)cc1 [Example 46]
No

# check: IC50 < 3 µM for CCOC(=O)COc1ccc2nc(Cl)cc(NCCc3ccc([N+](=O)[O-])cc3)c2c1 [Example 37]
No

# check: IC50 < 3 µM for CS(=O)(=O)Nc1ccc(CCNc2ncnc3scnc23)cc1 [Example 69]
Yes

# check: IC50 < 3 µM for O=[N+]([O-])c1ccc(CCNc2cc(Cl)nc3c(F)cccc23)cc1 [Example 31]
Yes

# check: IC50 < 3 µM for O=[N+]([O-])c1ccc(CCNc2cc(Cl)nc3cc(F)ccc23)cc1 [Example 30]
Yes

# check: IC50 < 3 µM for O=[N+]([O-])c1ccc(CCNc2nc(C(F)(F)F)nc3ccccc23)cc1 [Example 48]
No
